- experiment-summary: Toxic dose in DBA/2 mice
- Assay type: toxicity
- condition-set: DBA/2, mouse, in vivo
measured-metric: TD50 (µmol/kg)
Note: unit µmol/kg is implicit; provide only the numeric part.

- smiles-repr: "Nc1ccc(-c2nn(C(=O)NC3CCCCC3)c(=O)c3cc4c(cc23)OCO4)cc1"
  quantitative-readout: 63.8
- smiles-repr: "CCCNC(=O)n1nc(-c2ccc(N)cc2)c2cc3c(cc2c1=O)OCO3"
  quantitative-readout: 52.8
- smiles-repr: "CCCCNC(=O)n1nc(-c2ccc(N)cc2)c2cc3c(cc2c1=O)OCO3"
  quantitative-readout: 20.4
- smiles-repr: "CCCCCNC(=O)n1nc(-c2ccc(N)cc2)c2cc3c(cc2c1=O)OCO3"
  quantitative-readout: 56.6
- smiles-repr: "CCNC(=O)n1nc(-c2ccc(N)cc2)c2cc3c(cc2c1=O)OCO3"
  quantitative-readout: 91.1

Need TD50 of CNC(=O)n1nc(-c2ccc(N)cc2)c2cc3c(cc2c1=O)OCO3 , thanks.
59.4

Need TD50 of CCCCNC(=O)n1nc(-c2cccc(N)c2)c2cc3c(cc2c1=O)OCO3 , thanks.
101

----------
- experiment-summary: Toxic dose in DBA/2 mice; Values ranges from: 52.0-194
- Type: toxicity
- condition-set: DBA/2, mouse, in vivo
measured-metric: TD50
A complete answer gives the number followed by the unit.

Need TD50 of Nc1cccc(C2=NNC(=O)Cc3cc4c(cc32)OCO4)c1 , thanks.
101 µmol/kg

----------
- experiment-summary: Toxic dose in DBA/2 mice; Values ranges from: 36.1-82.9
- Assay type: toxicity
- condition-set: DBA/2, mouse, in vivo
measured-metric: TD50 (µmol/kg)
Note: unit µmol/kg is implicit; provide only the numeric part.

Need TD50 of Nc1ccc(-c2nnc(S)c3cc4c(cc23)OCO4)cc1 , thanks.
54.7

----------
- experiment-summary: Toxic dose in DBA/2 mice; Values ranges from: 74.8-169
- Assay type: toxicity
- condition-set: DBA/2, mouse, in vivo
measured-metric: TD50 (µmol/kg)
Note: unit µmol/kg is implicit; provide only the numeric part.

Need TD50 of Oc1nnc(-c2ccccc2)c2cc3c(cc12)OCO3 , thanks.
112

----------
- experiment-summary: Toxic dose in DBA/2 mice; Values ranges from: 59.6-132
- Type: toxicity
- condition-set: DBA/2, mouse, in vivo
measured-metric: TD50
A complete answer gives the number followed by the unit.

Need TD50 of Sc1nnc(-c2ccccc2)c2cc3c(cc12)OCO3 , thanks.
89 µmol/kg

----------
- experiment-summary: Toxic dose in DBA/2 mice; Values ranges from: 44.3-81.6
- Type: toxicity
- condition-set: DBA/2, mouse, in vivo
measured-metric: TD50

Need TD50 of Nc1ccc(-c2nnc(O)c3cc4c(cc23)OCO4)cc1 , thanks.
60.1 µmol/kg

----------
- experiment-summary: Toxic dose in DBA/2 mice; Values ranges from: 59.5-88.2
- Format: toxicity
- condition-set: DBA/2, mouse, in vivo
measured-metric: TD50 (µmol/kg)
Note: unit µmol/kg is implicit; provide only the numeric part.

Need TD50 of Nc1cccc(-c2nnc(O)c3cc4c(cc23)OCO4)c1 , thanks.
72.4

----------
- experiment-summary: Toxic dose in DBA/2 mice; Values ranges from: 72.4-135
- Format: toxicity
- condition-set: DBA/2, mouse, in vivo
measured-metric: TD50 (µmol/kg)
Note: unit µmol/kg is implicit; provide only the numeric part.

Need TD50 of Nc1ccc(C2=NNC(=O)Cc3cc4c(cc32)OCO4)cc1 , thanks.
99.1

----------
- experiment-summary: Relative lipophilicity expressed as Rm value
- Format: physicochemical
- condition-set: octanol/water
Examples of molecules with documented Rm follow.
Returns: the value as a bare number; no unit string appended.

Worked examples follow.
- smiles-repr: "CNC(=O)n1nc(-c2ccc(N)cc2)c2cc3c(cc2c1=O)OCO3"
  Rm: -0.364
- smiles-repr: "Nc1ccc(-c2nnc(S)c3cc4c(cc23)OCO4)cc1"
  Rm: -0.205
- smiles-repr: "Nc1ccc(-c2nn(C(=O)NC3CCCCC3)c(=O)c3cc4c(cc23)OCO4)cc1"
  Rm: 0.108
- smiles-repr: "Sc1nnc(-c2ccccc2)c2cc3c(cc12)OCO3"
  Rm: 0.05

We now examine a further molecule.
Need Rm of CCCCCNC(=O)n1nc(-c2ccc(N)cc2)c2cc3c(cc2c1=O)OCO3 , thanks.
0.101

----------
- experiment-summary: Relative lipophilicity expressed as Rm value
- Type: physicochemical
- condition-set: octanol/water
measured-metric: Rm
Returns: the value as a bare number; no unit string appended.

- smiles-repr: "Oc1nnc(-c2ccccc2)c2cc3c(cc12)OCO3"
  Rm: -0.158
- smiles-repr: "Nc1ccc(C2=NNC(=O)Cc3cc4c(cc32)OCO4)cc1"
  Rm: -0.43
- smiles-repr: "Nc1cccc(-c2nnc(O)c3cc4c(cc23)OCO4)c1"
  Rm: -0.399
- smiles-repr: "CCNC(=O)n1nc(-c2ccc(N)cc2)c2cc3c(cc2c1=O)OCO3"
  Rm: -0.235

We now examine a further compound.
Need Rm of CCCCNC(=O)n1nc(-c2ccc(N)cc2)c2cc3c(cc2c1=O)OCO3 , thanks.
0.002

----------
- experiment-summary: Ratio between TD50 and ED50 from the clonic phase of audiogenic seizures
- Type: ADME
- condition-set: read-out: Protective index
measured-metric: selectivity ratio
Returns: the value as a bare number; no unit string appended.

Worked examples follow.
- smiles-repr: "CCNC(=O)n1nc(-c2ccc(N)cc2)c2cc3c(cc2c1=O)OCO3"
  selectivity ratio: 2.1
- smiles-repr: "CCCCNC(=O)n1nc(-c2ccc(N)cc2)c2cc3c(cc2c1=O)OCO3"
  selectivity ratio: 6.3
- smiles-repr: "CCCCCNC(=O)n1nc(-c2ccc(N)cc2)c2cc3c(cc2c1=O)OCO3"
  selectivity ratio: 4.3

Need selectivity ratio of CCCNC(=O)n1nc(-c2ccc(N)cc2)c2cc3c(cc2c1=O)OCO3 , thanks.
3.3

Need selectivity ratio of CCCCNC(=O)n1nc(-c2cccc(N)c2)c2cc3c(cc2c1=O)OCO3 , thanks.
3.2

Need selectivity ratio of CNC(=O)n1nc(-c2ccc(N)cc2)c2cc3c(cc2c1=O)OCO3 , thanks.
2.5

Need selectivity ratio of Nc1ccc(-c2nn(C(=O)NC3CCCCC3)c(=O)c3cc4c(cc23)OCO4)cc1 , thanks.
2.2

----------
Examples of compounds with documented Rm follow.
- experiment-summary: Relative lipophilicity expressed as Rm value
- Type: physicochemical
- condition-set: octanol/water

Worked examples follow.
- smiles-repr: "CC1=NN=C(c2ccc(N)cc2)c2cc3c(cc2C1)OCO3"
  result: -0.304
- smiles-repr: "CCCNC(=O)n1nc(-c2ccc(N)cc2)c2cc3c(cc2c1=O)OCO3"
  result: -0.126

Need Rm of CCCCNC(=O)n1nc(-c2cccc(N)c2)c2cc3c(cc2c1=O)OCO3 , thanks.
0.01

Need Rm of Nc1cccc(C2=NNC(=O)Cc3cc4c(cc32)OCO4)c1 , thanks.
-0.372

Need Rm of O=C1Cc2cc3c(cc2C(c2ccccc2)=NN1)OCO3 , thanks.
-0.142

Need Rm of Nc1ccc(-c2nnc(O)c3cc4c(cc23)OCO4)cc1 , thanks.
-0.454
